I'd appreciate it if you could supply T/C values for the items below.
- System: L1210
- Test name: Antitumor activity against mouse L1210 cells allografted in C6D2F1 mouse at 100 to 1000 mg/kg, ip for 8 days starting from day 1 of challenge relative to control
- Cond: dose mg/kg 100-1000; route intraperitoneal
Supply the numeric figure in %, leaving out any unit text.

**Query** Which measured T/C value corresponds to O=C(NO)c1cc(O)c(O)c(O)c1 ?
**Result** 153

**Query** Which measured T/C value corresponds to O=C(NO)c1ccc(O)c(O)c1O ?
**Result** 130

**Query** Which measured T/C value corresponds to Nc1ccc(C(=O)NO)cc1 ?
**Result** 162

**Query** Which measured T/C value corresponds to Nc1ccc(C(=O)NO)cc1N ?
**Result** 140

**Query** Which measured T/C value corresponds to Nc1cccc(C(=O)NO)c1 ?
**Result** 110

**Query** Which measured T/C value corresponds to O=C(NO)c1cccc(O)c1O ?
**Result** 136

**Query** Which measured T/C value corresponds to O=C(NO)c1ccccc1 [BENZOHYDROXAMATE] ?
**Result** 144

**Query** Which measured T/C value corresponds to Nc1ccc(C(=O)NO)c(O)c1 ?
**Result** 115
